# test_system: PBMC/LMP7 (Homo sapiens, UniProt P28062)
# assay_summary: Durability of binding in cells, wash-out assay, PBMC/LMP7
# Type: cell-based
# measurement_parameters: 2 h incubation, inhibitor washout, 18 hr in culture
pIC50: −log10 of the molar value.
measure: pIC50

> print(dat)
                                 cpd.smiles  value.observed
1  CC(C)C=C(C#N)C(=O)N1CCC[C@@H]1COC[C@H](NC(=O)c1cc(Cl)ccc1Cl)C(=O)N[C@@H](Cc1ccccc1)B(O)O            6.84

---

Quick list: IC50 per entry.
# test_system: constitutive proteasome β5c unit (Homo sapiens, UniProt P28074)
# assay_summary: Caliper-based proteasome enzymatic activity assay, β5c
# measurement_parameters: human recombinant constitutive proteasome 0.3 nM, FAM-labeled peptide substrate 1 μM, rt 3 h; read-out: β5c subunit IC50
measure: IC50 (µM)

> print(dat)
                                   compound  limit.operator  value.observed
1  CC(C)(C=C(C#N)C(=O)N1CCC[C@@H]1CNC(=O)N[C@@H](Cc1coc2ccccc12)B(O)O)N1CCN(C2COC2)CC1 [Example 48]               =           0.383
2  CN(C[C@H]1CCCCN1C(=O)C(C#N)=CC(C)(C)N1CCC(F)(F)C1)C(=O)N[C@@H](Cc1ccccc1)B(O)O [Example 64]               >               5
3  CC(C)C=C(C#N)C(=O)N(C)c1cccc(C[C@H](NCC(F)(F)F)C(=O)N[C@@H](Cc2ccccc2)B(O)O)c1 [Example 26]               =           0.362

meta.source: patent US12312370B2
